System: Fibroblast
Assay: Multiplex assay against human fibroblast
Format: toxicity, cell-based
Conditions: 12 h, 10 µM, compound concentration 10 uM, replicate 1
Binary call on Total Cell Count with cut-off 200: strictly below means y, and equality or higher means n.

COMPOUND	ASSIGNED_LABEL
Cc1ccc(NC(=O)Nc2cc(C(F)(F)F)ccc2F)cc1Nc1ccc2c(c1)NC(=O)/C2=C\c1ccc[nH]1	n
CCCCCNC(=N)N/N=C/c1c[nH]c2ccc(OC)cc12.O=C(O)/C=C\C(=O)O [TEGASEROD MALEATE]	y
C=CC(=O)Nc1cc(-n2c(=O)ccc3cnc4ccc(-c5ccc(NS(C)(=O)=O)cc5)cc4c32)ccc1C	y
Cc1c(Nc2ccc(S(=O)(=O)N3CCN(C)CC3)cc2F)nc2ccc(Nc3cnn(C4CC4)c3)cn2c1=O	n
Oc1cccc(-c2nc(N3CCOCC3)c3oc4ncccc4c3n2)c1	y

Task item: In plain terms, does CCOC(=O)CCNc1cc(N2CCc3ccccc3CC2)nc(-c2ccccn2)n1 come in under 200 for Total Cell Count?
Reply: y

Task item: Regarding CC(C)C[C@H](NC(=O)[C@H](Cc1ccccc1)NC(=O)CNC(=O)CNC(=O)[C@@H](N)Cc1ccc(O)cc1)C(=O)O , kindly confirm whether its Total Cell Count is beneath 200.
Reply: y

Task item: Identify whether the compound Cc1c(P(=S)(c2ccccc2)c2ccccc2)n2ccccc2[n+]1C/C=C/c1ccccc1.[Br-] records Total Cell Count below 200.
Reply: y

Task item: Below 200 on Total Cell Count? Entry c1ccc(-c2oc3ncnc(NC[C@@H]4CCCO4)c3c2-c2ccccc2)cc1
Reply: y

Task item: Does the reported Total Cell Count of CN(c1cc(C(F)(F)F)nc(OCCC(=O)O)n1)c1cccc2c1CCC2 stay below 200?
Reply: y
